Where do these numbers come from? They come from patent US20250313535A1.

TARGET OR SYSTEM: α4β1 integrin (Homo sapiens (Human), UniProt P05556+P13612)
Sequence (P13612 34-1032): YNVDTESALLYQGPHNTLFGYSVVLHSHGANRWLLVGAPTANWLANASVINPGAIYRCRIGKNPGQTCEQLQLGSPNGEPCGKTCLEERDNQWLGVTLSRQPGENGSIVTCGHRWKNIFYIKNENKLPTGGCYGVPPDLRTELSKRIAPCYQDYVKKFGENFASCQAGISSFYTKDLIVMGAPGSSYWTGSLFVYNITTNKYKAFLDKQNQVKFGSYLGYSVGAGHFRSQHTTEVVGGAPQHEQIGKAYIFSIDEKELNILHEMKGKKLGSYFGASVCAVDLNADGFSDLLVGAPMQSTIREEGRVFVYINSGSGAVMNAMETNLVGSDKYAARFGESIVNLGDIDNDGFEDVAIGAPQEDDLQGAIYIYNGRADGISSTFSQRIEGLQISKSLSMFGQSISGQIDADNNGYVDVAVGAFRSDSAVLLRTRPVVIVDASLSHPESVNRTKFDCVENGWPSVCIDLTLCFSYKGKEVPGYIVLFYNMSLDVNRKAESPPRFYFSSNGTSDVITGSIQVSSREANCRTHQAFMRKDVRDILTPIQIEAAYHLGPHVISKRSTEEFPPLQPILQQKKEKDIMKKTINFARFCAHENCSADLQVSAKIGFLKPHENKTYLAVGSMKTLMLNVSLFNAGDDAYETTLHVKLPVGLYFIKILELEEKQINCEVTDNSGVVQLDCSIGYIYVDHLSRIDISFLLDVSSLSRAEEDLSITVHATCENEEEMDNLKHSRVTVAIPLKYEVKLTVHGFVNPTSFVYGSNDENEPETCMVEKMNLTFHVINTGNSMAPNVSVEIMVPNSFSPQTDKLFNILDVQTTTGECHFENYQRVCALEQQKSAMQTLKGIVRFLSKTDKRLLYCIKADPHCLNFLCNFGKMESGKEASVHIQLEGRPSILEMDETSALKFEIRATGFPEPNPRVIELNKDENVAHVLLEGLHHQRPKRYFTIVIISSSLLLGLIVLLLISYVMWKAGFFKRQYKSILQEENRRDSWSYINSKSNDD
Sequence (P05556 21-798): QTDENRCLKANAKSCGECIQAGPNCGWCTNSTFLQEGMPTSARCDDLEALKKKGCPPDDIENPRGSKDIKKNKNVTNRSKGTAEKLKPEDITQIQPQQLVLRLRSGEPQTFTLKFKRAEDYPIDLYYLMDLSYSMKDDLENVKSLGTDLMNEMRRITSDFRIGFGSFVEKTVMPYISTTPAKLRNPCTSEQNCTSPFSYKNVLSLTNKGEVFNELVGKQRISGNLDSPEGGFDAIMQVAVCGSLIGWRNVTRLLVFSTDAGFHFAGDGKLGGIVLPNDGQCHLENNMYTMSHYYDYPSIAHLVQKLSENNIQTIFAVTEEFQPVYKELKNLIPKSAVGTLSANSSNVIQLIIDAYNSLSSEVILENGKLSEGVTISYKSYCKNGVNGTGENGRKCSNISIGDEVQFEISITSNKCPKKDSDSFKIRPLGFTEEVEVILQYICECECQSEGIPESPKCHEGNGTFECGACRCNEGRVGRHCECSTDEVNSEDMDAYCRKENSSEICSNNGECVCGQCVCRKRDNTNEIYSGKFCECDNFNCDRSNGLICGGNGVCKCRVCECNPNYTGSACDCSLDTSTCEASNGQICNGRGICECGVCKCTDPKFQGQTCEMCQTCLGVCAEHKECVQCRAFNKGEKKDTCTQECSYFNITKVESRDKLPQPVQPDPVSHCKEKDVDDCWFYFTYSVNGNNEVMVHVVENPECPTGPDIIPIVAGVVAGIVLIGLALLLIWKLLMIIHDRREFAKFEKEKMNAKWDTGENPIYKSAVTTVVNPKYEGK
METHOD SUMMARY: Integrin Adhesion Assay: Protocol 2 (VCAM-coated plate, Jurkat cells, CellTiter GLO readout)
Type: cell-based
CONDITION CONTEXT: determined by at least one of the assays described (protocol not specified)
Reported IC50 by item:
QUANTITY MEASURED: IC50

>>> df
                                item_smiles       result
0  Cn1ccc(=O)n(-c2cccc3c(C[C@H](NC(=O)c4c(F)cncc4Cl)C(=O)O)cccc23)c1=O  0.1 to 1 µM
1  Cn1ccc(C(F)(F)F)c(-c2nccc3c(C[C@H](NC(=O)c4c(F)cccc4C(F)(F)F)C(=O)O)cccc23)c1=O       > 1 µM
2  Cn1ccc(=O)n(-c2cccc3c(C[C@H](NC(=O)C4(C)CCCCC4)C(=O)O)cccc23)c1=O       > 1 µM
